test system: NCI-H1755; assay: relative viability (nuclei count vs DMSO), 5 days (fraction); higher = more cells survive; conditions: first compound 0.05 µM
Kindly state relative viability for each of the entries shown.
In your answer, state the number alone without any accompanying words.

State the recorded relative viability for this entry: Nc1ccn([C@@H]2O[C@H](CO)[C@@H](O)[C@@H]2O)c(=O)n1 [Cytarabine] + O=C(CCCCCCC(=O)Nc1ccccc1)NO [Vorinostat] (partner 1 µM)
0.685

State the recorded relative viability for this entry: COc1cc2nccc(Oc3ccc(NC(=O)Nc4cc(C)on4)c(Cl)c3)c2cc1OC [Tivozanib] + C[C@]1(O)C[C@@H](c2nc(-c3ccc4ccc(-c5ccccc5)nc4c3)c3c(N)nccn32)C1 [Linsitinib] (partner 1 µM)
1.05

State the recorded relative viability for this entry: Nc1ccn([C@@H]2O[C@H](CO)[C@@H](O)[C@@H]2O)c(=O)n1 [Cytarabine] + Cc1cc(Nc2cc(N3CCN(C)CC3)nc(Sc3ccc(NC(=O)C4CC4)cc3)n2)n[nH]1 [Tozasertib] (partner 0.1 µM)
0.421

Numbers sourced from the supplement of paper PMC10307832.
